Each recorded value in this set is attributed to the MegaScale stability set (Tsuboyama et al. 2023).

We begin with a simple list: items and their reported folding stability dG.
B1: 5KPH (parent)
chain: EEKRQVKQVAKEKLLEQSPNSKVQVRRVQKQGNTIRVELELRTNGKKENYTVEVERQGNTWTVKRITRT

- Variants of: B1
- method_summary: folding stability dG (cDNA display proteolysis); higher = more stable
- assay_conditions: PBS, room temperature
outcome_measure: folding stability dG (kcal/mol)

> print(dat)
                           monomer.sequence       outcome.measure  recorded.number
1  EEKRQVKQVAKEKLLEQSPNSKVQVRRVQKQGNTIRVELELRTNGKKENYTVEVERQGNTWTVRRITRT [K64R]  folding stability dG             3.94
2  EEKRQVKQVAKEKLLEQSPNSKVQVRRVQKQGNTIRVELELRLNGKKENYTVEVERQGNTWTVKRITRT [T43L]  folding stability dG             3.94
3  EEKRQVKQVAKEKLLEQSPNSKVQVRRVQKQGNTIRVELELRTNGKKENYTVEVERQGNTWTVKRITKT [R68K]  folding stability dG             3.99
4  EEKRQVKQVAKEKLLEQSPNSKVQVRRVQKQGNTIRVELELRTNGKKENYTVEVERQGNTWTVKRITRR [T69R]  folding stability dG             3.89
5  EEKRQVKQVAKEKLLEQSPNSKVQVRRVQKQGNTIRVELELRTNGKKENYTVEVWRQGNTWTVKRITRT [E55W]  folding stability dG             3.92
6  EEKRQVKQVAKEKLLEHSPNSKVQVRRVQKQGNTIRVELELRTNGKKENYTVEVERQGNTWTVKRITRT [Q17H]  folding stability dG             4.04
